# credit: patent US8541362B2

Here the recorded Max Mean Cmax [uU/mL] is given for each entry.
Assay: Oral delivery of insulin in rats with delivery agent: serum insulin by ELISA
Type: in vivo, rat
Conditions: procedure of Example 2 (0.25 mg/kg insulin, 100 mg/kg delivery agent)
Measured Parameter: Max Mean Cmax [uU/mL] (uU/mL)

> print(dat)
                  chem.smiles  measured
1    COC(=O)CCCCCCC(=O)NC1CC1     84.93
2  O=C(O)CCCCCCCCC(=O)NCC1CC1      71.2
3  COC(=O)CCCCCCCCC(=O)NC1CC1     340.4
4   COC(=O)CCCCCCC(=O)NCC1CC1      71.3
5   O=C(O)CCCCCCCCC(=O)NC1CC1     142.7
